Target: MtrR T43S (Neisseria gonorrhoeae, UniProt P39897 1-210, T43S)
Experimental protocol: fluorescence polarization; FP: 20 mM Tris-HCl pH 7.5, 100 mM NaCl, 2.5% glycerol, 1 mM TCEP, 1 ug BSA, 1 ug poly(dI-dC), 1 nM 5'-fluorescein DNA; temperature not stated; MtrR concentration as dimer
Condition info: protein: recombinant; tags: N-terminal His6 removed by TEV (pMCSG7); chain copies: 2; label: 5'-fluorescein
Measured parameter: Kd (nM)
Respond with the bare value in nM.

So for rpoH 27mer (dsDNA) DNA 1: TACATACGTGGTTGTATGTAAACGGCC DNA 2: GGCCGTTTACATACAACCACGTATGTA , the logged Kd turned out to be 860
